Catalogue of half-life readings, one per entry.
settings: rat; liver microsomes; pH 7.4; 15.0 min; 1.0 µM

These solved cases illustrate the format of a correct answer.
COMPOUND | RESULT
O=C(NC1CCCc2c1[nH]c1ccc(Cl)cc21)c1ccncc1 (stereo not drawn) | > 30 min
O=C(CCc1ccccc1)Nc1ccc(S(=O)(=O)Nc2nccs2)cc1 | > 30 min

Here is the next item to consider.
Q. I am curious: what half-life value has been reported for CNC(=O)c1ccc(C)c(-n2c(C)cc(OCc3ccc(F)cc3F)c(Br)c2=O)c1 ?
A. > 30 min

* * *

The compounds listed here are annotated with their half-life.
conditions: rat; liver microsomes; pH 7.4; 15.0 min; 1.0 µM
A number alone suffices; assume min.

MOLECULE | half-life [min]
Nc1ncnc(N2CCc3ccccc32)c1[N+](=O)[O-] | 8.6

From here, focus on the item given below.
Q. Please look up its half-life: O=[N+]([O-])c1ccc(/C=N/n2c(CO)nc3ccccc32)s1
A. 21

* * *

settings: rat; liver microsomes; pH 7.4; 15.0 min; 1.0 µM
Lab note: class by half-life, see b0 (below 3 min), b1 (3 min to below 10 min), b2 (10 min or more)

Q. Which category does the recorded half-life put COc1cccc(C(=O)Nc2cccc(OCc3cc(=O)n4cccc(C)c4n3)c2)c1 in?
A. b1

* * *

// half-life lookup, one value per entry
details: rat; liver microsomes; pH 7.4; 15.0 min; 1.0 µM

Answered examples (8):
COMPOUND | MEASURED_PARAMETER | RESULT
CC(=O)Nc1nc(C)c(-c2ccc(Cl)c(S(=O)(=O)NCCO)c2)s1 | half-life | > 30 min
O=C1CCC(CNC(=O)c2nc(-c3ccccc3)cc3[nH]ccc23)N1 (configuration not stated) | half-life | > 30 min
COc1cc(-c2nc(Nc3ccc(F)c(F)c3)c3ccccc3n2)cc(OC)n1 | half-life | > 30 min
CN(C)CC(=O)NC1CCCc2c1cnn2-c1ccc(F)cc1F (configuration not stated) | half-life | > 30 min
COc1ccc(O)c(CNc2ccc(S(=O)(=O)Nc3nccs3)cc2)c1 | half-life | > 30 min
CC1(C)CCC(c2ccc(Cl)cc2)=C(CN2CCN(c3ccc(C(=O)NS(=O)(=O)c4ccc(N[C@H](CCN5CCOCC5)CSc5ccccc5)c(S(=O)(=O)C(F)(F)F)c4)cc3)CC2)C1 | half-life | > 30 min
Cc1cc(C)c(CNC(=O)c2nc(-c3cccc(CO)c3)cc3c2ccn3C)c(=O)[nH]1 | half-life | 8.11 min
CC(C)c1ccccc1-c1ncc(F)c(NCc2ccc(-c3cccnc3)s2)n1 | half-life | 2.8 min

Q. Quick one: half-life for c1ccc(-c2cn[nH]c2)cc1 ?
A. 13.1 min

Q. # half-life lookup, item COc1cccc(CNc2ccc(S(=O)(=O)Nc3cnc4ccccc4c3)cc2)c1O
A. 13 min

Q. Could you tell me which half-life is on file for C=Cc1ccc(C(=O)N2CCCC(CCC(=O)N3CCN(c4ccccn4)CC3)C2)cc1 (configuration not stated) ?
A. 1.5 min

Q. Any idea what half-life was measured for COc1cccc(CNc2ccc(S(=O)(=O)Nc3nc4ccccc4o3)cc2)c1O ?
A. > 30 min

* * *

details: rat; liver microsomes; pH 7.4; 15.0 min; 1.0 µM
// classify: if (half-life < 4 min) satisfied else not satisfied

Example entries begin here.
COMPOUND | GROUP_LABEL
O=C(c1nc(-c2cccnc2)c2ccccn12)N1CCOCC1 | not satisfied
CN1Cc2c(cc(N3CCOCC3)nc2-c2ccccc2OC(F)(F)F)C1=O | not satisfied
Cn1cnc2c(F)c(Nc3ccc(Br)cc3Cl)c(C(=O)NOCCO)cc21 | not satisfied
COc1ccc(-c2cc(C)nc3c(-c4ccc(OC)c(OC)c4)c(C)nn23)cc1 | not satisfied
Nc1cccc(CNc2ccc(S(=O)(=O)Nc3nccs3)cc2)c1O | not satisfied
O=C1CCc2ccc(OCCCCN3CCN(c4cccc(Cl)c4Cl)CC3)cc2N1 | satisfied

Moving on to the next compound.
Q. Hello, is half-life of the following compound strictly smaller than 4 min? O=C(Nc1ccc(S(=O)(=O)Nc2nccs2)cc1)c1ccnc(-c2ccccc2)c1
A. not satisfied

* * *

settings: rat; liver microsomes; pH 7.4; 15.0 min; 1.0 µM
MEASURED_PARAMETER: half-life (min)
I only need the number, in min, no unit after it.

Example results:
COMPOUND | half-life / min
Cn1cc(S(=O)(=O)N2CCCCCC2)cc1C(=O)Nc1ccc(Cl)c(C(F)(F)F)c1 | 5.98
COc1ccc2[nH]c(=O)c(-c3noc(-c4cccs4)n3)cc2c1 | 13
Cc1c(NC2=C(Cl)C(=O)N(c3ccccc3)C2=O)c(=O)n(-c2ccccc2)n1C | 23
O=C1NC(=S)NC(=O)C1=Cc1cccn1-c1ccc(O)cc1 | 10.5
CCc1ccc(NC(=O)c2[nH]c(C)c(C(C)=O)c2C)cc1S(=O)(=O)Nc1ccc(Br)cc1 | 23
COc1ccc(Nc2nc(-c3ccncc3)nc3ccccc23)cc1F | 9.7
COC(=O)c1ccc2nc(NC3=NC(c4[nH]ncc4Cl)C4=C(CCCC4=O)N3)oc2c1 (centres undefined) | 5.9
COc1ccc(Nc2cc(C)nc(-n3nc(C)cc3C)n2)cc1Cl | 17.7

Please turn your attention to the following entry.
Q. Request the reported half-life associated with COc1cc(CNCCO)cc(Cl)c1OCc1ccc(Cl)cc1Cl
A. 25.5

* * *

details: rat; liver microsomes; pH 7.4; 15.0 min; 1.0 µM
MEASURED_PARAMETER: half-life (min)
State the answer as a number, implicitly in min.

Q. Form field: reported half-life of Cc1ccc(CSCc2ccc(C(=O)NC3CC3)o2)cc1
A. 1.7

Q. Given COc1ccc(-n2nc(C)c([C@@H]3C=C[C@@H](NCc4cccc(Cl)c4)C3)c2C)cc1 , state its recorded half-life.
A. 4.19

* * *

conditions: rat; liver microsomes; pH 7.4; 15.0 min; 1.0 µM
MEASURED_PARAMETER: half-life (min)
Write the number in min without appending the unit.

MOLECULE | MEASURED_PARAMETER | READOUT_NUMBER
c1ccc2c(Nc3ccon3)nc(-c3ccncc3)nc2c1 | half-life | 6.2
O=C(Cc1ccc(Cl)c(Cl)c1)Nc1ccc([S+](=O)([O-])Nc2ccccn2)cc1 | half-life | 8.3

Read the next record carefully.
Q. Name the reported half-life value associated with the molecule CCCCn1cc2c(c1-c1ccc(Br)cc1)c(=O)n(C)c(=O)n2C
A. 7.68

* * *

settings: rat; liver microsomes; pH 7.4; 15.0 min; 1.0 µM
Each record's half-life is compared with low: < 2 min; medium: ≥ 2 min and < 10 min; high: ≥ 10 min to give its class.

MOLECULE | GROUP_LABEL
c1ccc(CNc2nc(NCc3ccccc3)c3ccccc3n2)cc1 | medium
CCNC(=O)N1CCCN(c2ccc(C(=O)NCCc3ccc(Cl)cc3Cl)cc2NC(=O)c2cccc(Cl)c2)CC1 | low
CC[C@H](NC(=O)[C@H](C)NC)C(=O)N1C[C@@H](O)C[C@H]1Cc1c(-c2[nH]c3cc(F)ccc3c2C[C@H]2C[C@H](O)CN2C(=O)[C@H](CC)NC(=O)[C@H](C)NC)[nH]c2cc(F)ccc12 | high
Cc1ccc(S(=O)(=O)Nc2ccc(F)cc2C(=O)Nc2nc(-c3ccccc3)cs2)cc1 | medium
COc1cccc2c1CCCC2CCCN1CCN(C2CCCCC2)CC1 (configuration not stated) | medium

Q. Where would Cc1ccc(-c2nc(NCC(=O)Nc3cccc(C(=O)O)c3)c3ccccc3n2)cc1 land among the classes by reported half-life?
A. high

Q. Class for CC(C)NC(=O)C1CCN(C(=O)c2cc3sccc3n2Cc2ccc(Cl)cc2)CC1 ?
A. low

Q. The entry to classify is NC(=O)C1CCN(c2nccc(-c3ccc4c(c3)OCCCO4)n2)CC1 ; which class holds it?
A. medium

Q. Textbook exercise: identify the category of the molecule given here, Cc1ccc(Nc2nc(C)c(NC(=O)c3ccc(C)cc3)c(Nc3ccc(C)cc3)n2)cc1 , according to its measured value.
A. high

Q. Sort into band: CCc1[nH]c2ccc(CNC(=O)Cc3cnc4c(C)cccn34)cc2c1C
A. medium

Q. Place this molecule in its band: CC1=C(C(=O)Nc2nccs2)C(c2ccccc2Br)N=C(Nc2nc3ccccc3o2)N1 (configuration not stated)
A. high

Q. Lab log: COc1ccc2oc(NC3=NC(c4[nH]ncc4Cl)C4=C(CCCC4=O)N3)nc2c1 (configuration not stated) — assign half-life category
A. high

Q. Band for CC(=O)O[C@H]1CC[C@]2(C)C(=CC[C@H]3[C@H]4C[C@H]5O[C@]6(CC[C@H](C)CN6)[C@H](C)[C@@H]5[C@]4(C)CC[C@@H]32)C1 ?
A. low

Q. Lab log: Cc1ccc(C(=O)N2CCc3c(nc4cc(-c5ccccc5)[nH]n4c3=O)C2)cn1 — assign half-life category
A. high

Q. Which half-life band matches CN(C)C(=O)C1CCN(c2nc(-c3ccc(Br)cc3)cs2)CC1 ?
A. high

Q. Just checking, what class would you give CN1CCN(c2ccc(Nc3c4ccccc4nc4ccccc34)cc2)CC1 here?
A. low

Q. Could you tell me which band Fc1ccc(-c2nc(-c3ccncc3)nc3ccccc23)cc1F belongs to?
A. high

Q. Tag the class for Oc1ccc(-c2nc(C3CC3)nc3c2CCN(CC2CCCCC2)CC3)cc1
A. medium

Q. Given Cc1cn2nc(-c3nc(C4CCCN(C(=O)c5ccccc5)C4)no3)cc2c(=O)[nH]1 (configuration not stated) , name the class its half-life places it in.
A. high

Q. Lab note: sort O=C(NC1CCN(c2cc(-c3ccc(Cl)cc3)[nH]n2)C1)c1ccccc1 (configuration not stated) into the matching half-life band.
A. high

Q. Which of the defined bands does the recorded half-life of COCCNC(=O)c1ccc(-c2ncc3cnc(-c4cccc(F)c4)cn23)cc1 sit within?
A. high

Q. Just checking, what class would you give COc1ccnc(NC(=S)N2CCN(c3cccc(C(F)(F)F)n3)CC2)c1 here?
A. high

Q. Form: Item = Cc1ccc2nc(-c3ccccn3)c(Nc3ccccc3C)n2c1 ; Class = ?
A. high

Q. Class label required: O=C(NCc1ccccc1)C1CCN(c2nc(-c3ccc(Br)cc3)cs2)CC1
A. low

Q. Which class does CC1(C)CC2CC(C)(CN2S(=O)(=O)c2ccc(C(=O)Nc3ccc(Cl)cc3)cc2)C1 (configuration not stated) fall in?
A. medium

Q. Where would Cc1ccc(NS(=O)(=O)c2ccc(C(=O)Nc3nc(-c4ccccc4)cs3)cc2)cc1 land among the classes by reported half-life?
A. medium

Q. Using the reported half-life, which band applies to Fc1cc(Nc2nc(-c3ccncc3)nc3ccccc23)ccc1C(F)(F)F ?
A. high
